Reported Lambsquarters plant response rating (0 to 100 scale) values for the following compounds.
# Tested on: lambsquarters
# assayNotes: Test B pre-/postemergence herbicide test
# Format: in vivo, Chenopodium album
# assayContext: 125 g ai/ha; 0 = no effect, 100 = complete control; preemergence

Check out these entries, answers already filled in.
structureNotation	result
CCNC(=O)c1ccc(F)c(NC(=O)c2cn(C(C)(C)C)nc2CC)c1	100
C#CCNC(=O)c1cc(NC(=O)c2cc(C(C)(C)C)nn2CC)ccn1	0

Now for another entry.
In: # Lambsquarters plant response rating (0 to 100 scale) lookup, item `CCc1nn(C(C)(C)C)cc1C(=O)Nc1cccc(C(=O)N(C)C)n1`
Out: 70

====

Entries and their Plant response rating, Johnsongrass values follow.
# Test system: johnsongrass
# assayNotes: Test C pre-/postemergence herbicide test
# Format: in vivo, Sorghum halepense
# assayContext: 500 g ai/ha; scale 0 to 100 (0 no effect, 100 complete control); visual, 12 to 14 days; preemergence
// no unit string in output, number only

Worked cases, Plant response rating, Johnsongrass given:
structureNotation	assayTarget	Plant response rating, Johnsongrass
CCc1nn(C(C)C)nc1C(=O)Nc1cccc(C(=O)N2CCCCC2)c1	johnsongrass	100
CCc1nc(C(C)(C)C)sc1C(=O)Nc1cccc(C(=O)NCC2CC2)c1	johnsongrass	60
C=CCNC(=O)c1cccc(NC(=O)c2cc(C(C)(C)C)nn2C)n1	johnsongrass	95

--- query ---
In: // Plant response rating, Johnsongrass lookup, key: `CCc1nn(C(C)C)nc1C(=O)Nc1cccc(C(=O)N(C)CC)c1`
Out: 100

====

# System: rice
# assayNotes: Test B flooded paddy test
# Format: in vivo, Oryza sativa
# assayContext: 1000 g ai/ha, scale 0 to 100 (0 no effect, 100 complete control)
endpointLabel: Rice plant response rating

structureNotation	result
CCNC(=O)c1ccc(F)c(NC(=O)c2nn(C(C)C)nc2C)c1	20
CCN(C)C(=O)c1cccc(NC(=O)c2nn(C(C)C)nc2C)c1	50
CCc1nn(C(C)C)nc1C(=O)Nc1cccc(C(=O)N(C)CC)c1	80
C=CCN(CC=C)C(=O)c1cncc(NC(=O)c2cc(C(C)(C)C)nn2CC)c1	0
CCc1nn(C(C)C)nc1C(=O)Nc1cccc(C(=S)N(C)C)c1	70

In: Provide value of Rice plant response rating for this record tested with rice: `CN(C)C(=O)c1cccc(NC(=O)c2nn(C(C)(C)C)nc2Br)c1`
Out: 70

====

# System: ducksalad
# assayNotes: Test C flooded paddy test
# Assay type: in vivo, Heteranthera limosa
# assayContext: 125 g ai/ha, scale of 0 to 100, 0 is no effect, 100 is complete control
endpointLabel: Ducksalad plant response rating
Give only the figure.

// worked examples, Ducksalad plant response rating included
structureNotation	resultNumber
CCn1nc(C(C)(C)C)cc1C(=O)Nc1cccc(C(=O)N(C)C)c1	50
CCN1CCc2c(NC(=O)c3cc(C(C)(C)C)nn3CC)cccc2C1=O	50
CCn1nc(C(C)(C)C)cc1C(=O)Nc1cccc(C(C)=O)c1	80

In: Identify the measured Ducksalad plant response rating of `C=CCn1nc(C(C)(C)C)cc1C(=O)Nc1cccc(C(=O)NCC)c1` for ducksalad.
Out: 55

====

# Test system: woolly cupgrass
# assayNotes: Test C pre-/postemergence herbicide test
# Assay type: in vivo, Eriochloa villosa
# assayContext: 500 g ai/ha; scale 0 to 100 (0 no effect, 100 complete control); visual, 12 to 14 days; preemergence
endpointLabel: Plant response rating, Cupgrass, Woolly
Please give the numeric answer without any surrounding text.

Answered cases to consult:
structureNotation	resultNumber
CCN(CC)C(=O)c1cccc(NC(=O)c2cc(C(C)(C)C)nn2C)n1	20
CCc1nn(C(C)C)nc1C(=O)Nc1cccc(C(=O)N2CCCCC2)c1	95
CCc1nn(C(C)C)nc1C(=O)Nc1cccc(C(=O)N(C)CC)c1	95
CCn1nc(C(C)(C)C)cc1C(=O)Nc1ccc(OC)c(OC)c1	60
CCc1nn(C(C)C)nc1C(=O)Nc1cccc(C(=S)N(C)C)c1	80

Kindly review the next molecule as well.
In: Enter reported Plant response rating, Cupgrass, Woolly observed with woolly cupgrass for `CCn1nc(C2(C)CC2)cc1C(=O)Nc1cc(C(=O)N2CC=CC2)ccc1F`
Out: 90
